Where do the numbers come from? From patent US20040038883A1.

Measured pKi accompanies every entry in the list below.
# System Tested: T1, Src
# T1 construct: Bought enzyme
# Experimental Details: in vitro Src kinase activity assay, 33P-ATP, Flash Plate
pKi: −log10 of the molar value.

Binder	pKi
VELDPEFEPRARERTYSFGH [Peptide 1]	< 4.48

Which measured pKi value corresponds to VELDPEFEPRARERAYAFGH (Made from peptide 2 by changing Thr at position 15 to Ala) [Peptide 4] ?
< 4.48
